Tested on: PPARa:RXRa (NR concentration 270 nM, RXRa partner concentration 90 nM)
PROTOCOL_TEXT: PBM binding z-score (relative to random genomic background probes); higher = stronger binding; sequences stand for … in GC…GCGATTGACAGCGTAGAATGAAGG
PROPERTY_LABEL: PBM binding z-score
Please state the value as a number alone, without comment.

Inquiry: Dear colleague, I am looking for the recorded PBM binding z-score of the following sequence: CGAACGAGGGCATGAGTTGATAGCGAATGCCGAT
Reply text: 1.51

Inquiry: Dear colleague, I am looking for the recorded PBM binding z-score of the following sequence: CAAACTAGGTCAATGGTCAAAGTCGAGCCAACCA
Reply text: 5.6

Inquiry: Dear colleague, I am looking for the recorded PBM binding z-score of the following sequence: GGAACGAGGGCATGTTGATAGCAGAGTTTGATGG
Reply text: 0.843

Inquiry: Dear colleague, I am looking for the recorded PBM binding z-score of the following sequence: GATACAGGGTCAAGGCCAGAGCACGCGTATTGAT
Reply text: 5.48

Inquiry: Dear colleague, I am looking for the recorded PBM binding z-score of the following sequence: CCGACTAGGGCAGAAAGGTTACCATACCATCCGG
Reply text: 2.11

Inquiry: Dear colleague, I am looking for the recorded PBM binding z-score of the following sequence: GCGGCTAGGTCAACTGATGGTCAGCTAAAGCTCG
Reply text: 3.56

Inquiry: Dear colleague, I am looking for the recorded PBM binding z-score of the following sequence: AGAACGAGGGCAATGAGTTTATAGCACGGGTGGC
Reply text: 1.25

Inquiry: Dear colleague, I am looking for the recorded PBM binding z-score of the following sequence: ATCTCTAGTTAAAAGTTCAGTGAATCCCGAGGAT
Reply text: 1.64

Inquiry: Dear colleague, I am looking for the recorded PBM binding z-score of the following sequence: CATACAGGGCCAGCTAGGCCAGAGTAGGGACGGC
Reply text: -0.817

Inquiry: Dear colleague, I am looking for the recorded PBM binding z-score of the following sequence: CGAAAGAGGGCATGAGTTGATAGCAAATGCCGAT
Reply text: 1.7

Inquiry: Dear colleague, I am looking for the recorded PBM binding z-score of the following sequence: ATCTCTAGGTCACCAAGTTCAGTGAATGCCGAAC
Reply text: 4.74

Inquiry: Dear colleague, I am looking for the recorded PBM binding z-score of the following sequence: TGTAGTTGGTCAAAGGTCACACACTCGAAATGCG
Reply text: 6.69

Inquiry: Dear colleague, I am looking for the recorded PBM binding z-score of the following sequence: ATCTCTAGGTAAAGTTAAGTGAAAGATCGATAGA
Reply text: 0.332
